System: anlotinib metabolism in HLM
procedure.summary: in vitro
condition: human, pH 7.4
// reported Ki for each item listed
property.name: Ki (µM)

CC[C@H]1OC(=O)[C@H](C)[C@@H](O[C@H]2C[C@@](C)(OC)[C@@H](O)[C@H](C)O2)[C@H](C)[C@@H](O[C@@H]2O[C@H](C)C[C@H](N(C)C)[C@H]2O)[C@](C)(OC)C[C@@H](C)C(=O)[C@H](C)[C@@H](O)[C@]1(C)O; 3.02
C[C@H]1COc2c(N3CCN(C)CC3)c(F)cc3c(=O)c(C(=O)O)cn1c23; 4.87

====

procedure.summary: in vitro
condition: human, microsomes, pH 7.4
property.name: microsomal CLint (µL/min/mg)

COc1cc2c(Oc3ccc4[nH]c(C)cc4c3F)ccnc2cc1OCC1(N)CC1 [Anlotinib]; 18
